tested on: sclera; assay: Content of collagen specific amino acids in rabbit sclera after long term treatment (HPLC); assay type: in vivo; settings: posterior sclera, dried defatted weight, 3 months treatment
Please respond with reported Proline content for every item in the list.

[in] What value of Proline content has been recorded for this entry: CNCCC(Oc1ccc(C(F)(F)F)cc1)c1ccccc1 (stereo not shown) [Fluoxetine, fluoxetine]
[out] 927 +/− 15 nanomol/mg tissue

[in] Same for N[C@@H](CSSC[C@H](N)C(=O)O)C(=O)O [L-cystine]
[out] 867 +/− 14 nanomol/mg tissue

[in] Another: Cn1c(=O)c2c(ncn2C)n(C)c1=O [Caffeine, 1,3,7-Trimethylxanthine]
[out] 947 +/− 38 nanomol/mg tissue

[in] Ok, now Cn1c(=O)c2[nH]cnc2n(C)c1=O.Cn1c(=O)c2[nH]cnc2n(C)c1=O.NCCN [Teofylamin]
[out] 902 +/− 53 nanomol/mg tissue

// provenance: patent US6710051B1
